molecular target: human FXR (NR1H4) (Homo sapiens, UniProt Q96RI1); construct: host or cells: CHO (Chinese hamster ovary) reporter cells; assay: Human FXR (NR1H4) Assay (Gal4 promoter driven luciferase reporter assay in CHO cells); type: cell-based; details: efficacy normalized to CDCA set as 100%, CHO cells expressing human NR1H4
Sequence (Q96RI1 whole entry, the tested form may be a part): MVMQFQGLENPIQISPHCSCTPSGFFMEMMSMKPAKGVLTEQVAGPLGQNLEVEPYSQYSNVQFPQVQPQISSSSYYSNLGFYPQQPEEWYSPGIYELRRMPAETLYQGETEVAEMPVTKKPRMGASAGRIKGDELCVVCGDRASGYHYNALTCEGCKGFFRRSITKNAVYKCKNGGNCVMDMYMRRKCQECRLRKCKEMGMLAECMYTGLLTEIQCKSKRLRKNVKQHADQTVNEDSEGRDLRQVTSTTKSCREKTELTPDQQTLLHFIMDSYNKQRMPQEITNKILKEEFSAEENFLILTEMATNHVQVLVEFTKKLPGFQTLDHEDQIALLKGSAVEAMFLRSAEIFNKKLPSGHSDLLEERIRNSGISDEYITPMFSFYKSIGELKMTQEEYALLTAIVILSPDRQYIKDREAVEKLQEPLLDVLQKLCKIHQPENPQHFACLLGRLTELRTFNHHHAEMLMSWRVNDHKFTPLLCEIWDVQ
Reported property: Emax (%)
Number in %, nothing else.

Req: If you can, please state the reported Emax value of O=C(O)c1ccc2nc(N[C@H]3CC[C@@H](OCc4c(-c5c(Cl)cccc5Cl)noc4C4CC4)CC3)sc2c1 .
Resp: 52

Req: If you can, please state the reported Emax value of CC(C)Oc1cc(C(=O)O)cc2sc(N(C)[C@H]3CC[C@@H](OCc4c(-c5c(Cl)cccc5Cl)noc4C4CC4)C3)nc12 .
Resp: 75

Req: If you can, please state the reported Emax value of CC(C)Oc1cc(C(=O)O)cc2sc(N(C)[C@@H]3CC[C@H](OCc4c(-c5ccccc5OC(F)(F)F)noc4C4CC4)C3)nc12 .
Resp: 67

Req: If you can, please state the reported Emax value of O=C(O)c1ccc2nc(N[C@@H]3CCC(OCc4c(-c5c(Cl)cccc5Cl)noc4C4CC4)C3)sc2c1 (stereo partly drawn) .
Resp: 116

Req: If you can, please state the reported Emax value of CC(C)Oc1cc(C(=O)O)cc2sc(N[C@@H]3CC[C@H](OCc4c(-c5c(Cl)cccc5Cl)noc4C4CC4)C3)nc12 .
Resp: 99

Req: If you can, please state the reported Emax value of CC(C)Oc1cc(C(=O)NS(=O)(=O)C2CC2)cc2sc(N[C@@H]3CCC(OCc4c(-c5c(Cl)cccc5Cl)noc4C4CC4)C3)nc12 (stereo partly drawn) .
Resp: 111
